Each entry below carries its recorded % inhibition.
- tgt: T1, recombinant human VEGF165 (human, UniProt P15692-4 27-191)
- T1 construct: also called hVEGF165; rhVEGF165
- methodDescription: VEGF165/hVEGFR1-Fc competition ELISA

binder: VEGFBII024 (VHH, biparatopic bivalent VHH in one chain; also called VEGFBII23B04-40GS-86H09; VEGFBI024) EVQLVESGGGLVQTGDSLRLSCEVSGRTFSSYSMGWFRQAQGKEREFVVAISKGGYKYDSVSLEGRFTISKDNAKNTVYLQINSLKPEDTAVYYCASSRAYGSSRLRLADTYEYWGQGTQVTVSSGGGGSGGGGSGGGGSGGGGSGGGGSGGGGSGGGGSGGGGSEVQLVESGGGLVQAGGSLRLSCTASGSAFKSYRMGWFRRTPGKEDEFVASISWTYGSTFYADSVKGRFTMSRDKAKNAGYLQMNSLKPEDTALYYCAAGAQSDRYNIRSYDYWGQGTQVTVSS
% inhibition (%): 92
--
binder: VEGFBII021 (VHH, biparatopic bivalent VHH in one chain; also called VEGFBII23B04-40GS-5B05) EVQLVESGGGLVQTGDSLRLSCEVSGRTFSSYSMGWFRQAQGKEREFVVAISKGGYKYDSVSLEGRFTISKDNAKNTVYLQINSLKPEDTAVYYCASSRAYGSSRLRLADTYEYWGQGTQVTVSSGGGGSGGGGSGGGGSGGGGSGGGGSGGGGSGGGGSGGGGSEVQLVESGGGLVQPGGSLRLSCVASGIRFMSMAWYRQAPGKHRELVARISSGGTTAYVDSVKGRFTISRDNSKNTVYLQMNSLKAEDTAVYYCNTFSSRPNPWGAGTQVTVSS
% inhibition (%): 97
--
binder: VEGFBII010 (VHH, bivalent VHH in one chain; also called VEGFBII23B04-35GS-23B04; homodimeric VEGFBII23B04) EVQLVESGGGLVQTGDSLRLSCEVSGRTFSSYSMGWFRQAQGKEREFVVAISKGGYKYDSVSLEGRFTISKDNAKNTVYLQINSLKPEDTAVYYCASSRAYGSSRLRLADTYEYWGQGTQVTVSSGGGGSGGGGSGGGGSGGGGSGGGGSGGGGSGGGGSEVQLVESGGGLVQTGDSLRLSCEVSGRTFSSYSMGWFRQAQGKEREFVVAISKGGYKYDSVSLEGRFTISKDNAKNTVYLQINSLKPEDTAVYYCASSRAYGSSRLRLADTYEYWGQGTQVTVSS
% inhibition (%): 67
